B1: Myocardin, residues 363 to 406; numbered along this chain, Q8IZQ8 (parent)
chain: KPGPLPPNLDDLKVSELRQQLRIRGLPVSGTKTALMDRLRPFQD

variants of: B1; test: abundance fitness (aPCA) (normalised: wild type 0, dead -1); higher = more abundant; growth selection in yeast, the domain comes from the species named; details: Homo sapiens
Binary classification by abundance fitness, with -0.4 as an inclusive lower bound for Y; all other cases are N.

{"mutation_spec": "E16S", "qualitative_label": "N"}
{"mutation_spec": "S15N", "qualitative_label": "Y"}
{"mutation_spec": "S15I", "qualitative_label": "Y"}
{"mutation_spec": "S15Q", "qualitative_label": "Y"}
{"mutation_spec": "K32A", "qualitative_label": "N"}
{"mutation_spec": "K1V", "qualitative_label": "N"}
{"mutation_spec": "P6F", "qualitative_label": "Y"}
{"mutation_spec": "E16R", "qualitative_label": "N"}
{"mutation_spec": "G3D", "qualitative_label": "Y"}
{"mutation_spec": "P27V", "qualitative_label": "N"}
{"mutation_spec": "P27D", "qualitative_label": "Y"}
{"mutation_spec": "L35Q", "qualitative_label": "Y"}
{"mutation_spec": "I23E", "qualitative_label": "Y"}
{"mutation_spec": "R40K", "qualitative_label": "Y"}
{"mutation_spec": "S29I", "qualitative_label": "Y"}
{"mutation_spec": "F42N", "qualitative_label": "N"}
{"mutation_spec": "P7W", "qualitative_label": "N"}
{"mutation_spec": "G25S", "qualitative_label": "Y"}
{"mutation_spec": "R18Q", "qualitative_label": "Y"}
{"mutation_spec": "D37T", "qualitative_label": "N"}
{"mutation_spec": "Q19P", "qualitative_label": "N"}
{"mutation_spec": "P4N", "qualitative_label": "Y"}
{"mutation_spec": "S29G", "qualitative_label": "Y"}
{"mutation_spec": "V28Q", "qualitative_label": "Y"}
{"mutation_spec": "P41W", "qualitative_label": "Y"}
